# system: androgen receptor (AR) (Homo sapiens, UniProt P10275, T878A)
# Construct: LNCaP cells expressing ARR2PB-FireflyLuc and CMV-RenillaLuc; endogenous in cells; host or cells: LNCaP cells carrying ARR2PB-FireflyLuc and CMV-RenillaLuc reporters
# Sequence (P10275 whole entry T878A): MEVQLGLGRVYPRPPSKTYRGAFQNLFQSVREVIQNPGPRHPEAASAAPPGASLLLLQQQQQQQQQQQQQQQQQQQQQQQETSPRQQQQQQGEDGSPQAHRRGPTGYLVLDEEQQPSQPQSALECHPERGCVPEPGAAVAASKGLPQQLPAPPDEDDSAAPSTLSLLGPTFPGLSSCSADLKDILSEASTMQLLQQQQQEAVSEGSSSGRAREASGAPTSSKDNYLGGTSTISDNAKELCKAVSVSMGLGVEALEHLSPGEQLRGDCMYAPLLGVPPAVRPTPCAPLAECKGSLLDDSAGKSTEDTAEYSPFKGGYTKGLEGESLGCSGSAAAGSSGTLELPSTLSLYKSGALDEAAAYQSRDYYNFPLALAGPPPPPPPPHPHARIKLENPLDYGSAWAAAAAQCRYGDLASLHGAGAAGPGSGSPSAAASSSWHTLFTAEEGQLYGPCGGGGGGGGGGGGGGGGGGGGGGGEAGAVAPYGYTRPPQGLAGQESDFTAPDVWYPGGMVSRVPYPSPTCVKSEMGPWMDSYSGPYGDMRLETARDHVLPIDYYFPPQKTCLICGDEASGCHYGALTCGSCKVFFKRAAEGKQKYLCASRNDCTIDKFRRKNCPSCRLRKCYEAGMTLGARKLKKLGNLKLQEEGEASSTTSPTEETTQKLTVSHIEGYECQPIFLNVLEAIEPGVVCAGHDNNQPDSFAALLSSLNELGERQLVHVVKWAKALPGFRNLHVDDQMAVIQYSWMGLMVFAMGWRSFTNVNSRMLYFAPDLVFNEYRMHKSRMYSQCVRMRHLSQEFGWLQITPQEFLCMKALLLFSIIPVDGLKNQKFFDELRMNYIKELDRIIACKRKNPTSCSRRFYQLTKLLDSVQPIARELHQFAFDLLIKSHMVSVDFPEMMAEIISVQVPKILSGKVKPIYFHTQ
# assay overview: AR reporter assay in LNCaP cells expressing ARR2PB-FireflyLuc and CMV-RenillaLuc, antagonist mode (% remaining activity, IC50)
# Format: cell-based
# measurement parameters: 48 h at 37° C., class symbols A-D, read-out: IC50
# Experimental: LNCaP cells expressing ARR2PB-FireflyLuc and CMV-RenillaLuc were treated with indicated concentrations of test compounds, enzalutamide (negative control), or DHT (positive control)+/−0.5 nM DHT for 48 h at 37° C. Fluorescent signals were read with the ImageXpress Micro Confocal System. […] Activation (agonist mode) was calculated as % Activation=100×[(ReadSample−LCave)/(HCave−LCave)] where HC is cells treated with 1 uM DHT and LC is cells treated with DMSO. […]
Give IC50 for every item shown.

[in] Fill in: IC50 of Cc1nc(-c2c[nH]c3cc(F)c(F)cc23)ccc1N [Compound 124] is ___
[out] 1000 to 10000 nM

[in] Subsequent entry: N#Cc1cccc2c(-c3ccc4ncccc4n3)nn(C3CCCCO3)c12 (stereo not shown) [Compound 85]
[out] > 10000 nM

[in] Thanks! And CN1CCOc2nc(-c3n[nH]c4cc(F)c(F)cc34)ccc21 [Compound 13] ?
[out] 1000 to 10000 nM

[in] And COc1nc(-c2c[nH]c3c(C#N)cccc23)ccc1C(N)=O [Compound 316] ?
[out] > 10000 nM

[in] Here is the next molecule: Cc1nc(-c2c[nH]c3c(C#N)c(Cl)ccc23)ccc1N [Compound 151]
[out] 100 to 1000 nM

[in] How about CNC(=O)c1cccc2c(-c3ccc(N)c(C)n3)c[nH]c12 [Compound 145] ?
[out] > 10000 nM

[in] Please do the same for Fc1cc2[nH]nc(-c3ccc4c(n3)NCCO4)c2cc1F [Compound 74] as well.
[out] 1000 to 10000 nM

[in] Queued: Cc1nc(-c2c[nH]c3c(C#N)cccc23)cnc1OC1C2CNCC21 (stereo not shown) [Compound 224]
[out] 1000 to 10000 nM

[in] Let us now turn to Cc1nc(-c2c[nH]c3c(C#N)cccc23)cnc1OC1CNC1 [Compound 239]
[out] 1000 to 10000 nM

[in] Likewise for CC1(C)CCNc2cnc(-c3n[nH]c4cc(F)c(F)cc34)cc21 [Compound 60] ?
[out] > 10000 nM

[in] Next: CC1(C)NC(=O)c2ccc(-c3c[nH]c4c(F)cccc34)nc21 [Compound 295]
[out] 100 to 1000 nM

[in] Item: Cc1nc(-c2c[nH]c3c(=O)n(C)ccc23)ccc1OC1CCNC1 (stereo not shown) [Compound 300]
[out] > 10000 nM

[in] What do you get for N#Cc1cccc2c(-c3cnc(OC4CCNC4)cn3)c[nH]c12 (stereo not shown) [Compound 222] ?
[out] 1000 to 10000 nM

[in] Now the molecule Cc1nc(-c2c[nH]c3c(C#N)cccc23)ccc1NCC(C)(C)O [Compound 219]
[out] 100 to 1000 nM

[in] Same read-out for Nc1ccc(-c2c[nH]c3cc(F)c(F)cc23)nc1Cl [Compound 209] ?
[out] 100 to 1000 nM

[in] What about Cc1cc(-c2n[nH]c3cc(F)c(F)cc23)nc2c1NC(=O)CC2 [Compound 80] ?
[out] 1000 to 10000 nM

[in] # iterate: CSc1nc(-c2c[nH]c3c(C#N)cccc23)cnc1OC1CCNC1 (stereo not shown) [Compound 307]
[out] > 10000 nM

[in] // next record Cc1nc(-c2c[nH]c3c(C#N)cccc23)ccc1NCCN [Compound 220]
[out] 100 to 1000 nM

[in] How about this molecule: Cc1nc(-c2c[nH]c3c(C#N)cccc23)cnc1OC1CCNCC1 [Compound 233]
[out] > 10000 nM

[in] Try this molecule too: COc1cncc(-c2c[nH]c3c(C#N)cccc23)n1 [Compound 215]
[out] < 100 nM

[in] Also CC1(C)c2nc(-c3c[nH]c4c(C#N)cccc34)ccc2C(=O)N1CCCO [Compound 235] ?
[out] > 10000 nM

[in] Do the same for CC1(C)NC(=O)c2ccc(-c3c[nH]c4cc(F)c(F)cc34)cc21 [Compound 143] please
[out] 1000 to 10000 nM

[in] Another: CCc1nc(-c2c[nH]c3c(C#N)cccc23)cnc1OC1CCN(C(C)=O)C1 (stereo not shown) [Compound 268]
[out] 100 to 1000 nM

[in] Try the molecule CC(=O)Nc1ccc(-c2n[nH]c3cc(F)c(F)cc23)nc1C [Compound 96]
[out] > 10000 nM

[in] Cool, now N#Cc1cccc2c(-c3ccc(N)c(C4CC4)n3)c[nH]c12 [Compound 139]
[out] < 100 nM

[in] Next record, please: CC1(C)NC(=O)c2ccc(-c3c[nH]c4c(C#N)cccc34)nc21 [Compound 206]
[out] 100 to 1000 nM

[in] And for COCCN1CCC(Oc2ncc(-c3c[nH]c4c(C#N)cccc34)nc2C)C1 (stereo not shown) [Compound 317] ?
[out] 1000 to 10000 nM

[in] Please give the result for Cc1nc(-c2c[nH]c3c(C#N)cccc23)cnc1OCCO [Compound 340] too.
[out] > 10000 nM

[in] Queued: COCC(COC)Nc1ncc(-c2c[nH]c3c(C#N)cccc23)nc1C [Compound 228]
[out] > 10000 nM

[in] What do you have for CC(=O)N1CCC(Oc2ccc(-c3c[nH]c4c(C#N)cccc34)nc2Cl)C1 (stereo not shown) [Compound 261] ?
[out] 100 to 1000 nM

[in] Check c1ccc2c(-c3ccc4cnccc4n3)n[nH]c2c1 [Compound 7] too.
[out] 100 to 1000 nM

[in] Check CC1(C)NC(=O)c2ccc(-c3c[nH]c4c(C#N)c(F)ccc34)nc21 [Compound 184] too.
[out] 100 to 1000 nM

[in] Subsequent entry: N#Cc1cccc2c(-c3ccc(N)cn3)c[nH]c12 [Compound 132]
[out] 1000 to 10000 nM

[in] Entry to check: CCc1nc(-c2c[nH]c3c(C#N)cccc23)cnc1OCCN [Compound 267]
[out] > 10000 nM

[in] What about CC(=O)N1CCC(Oc2ncc(-c3c[nH]c4c(C#N)cccc34)nc2C(F)(F)F)C1 (stereo not shown) [Compound 269] ?
[out] 100 to 1000 nM

[in] Same question, N#Cc1cccc2c(-c3ccc(N)c(Cl)n3)c[nH]c12 [Compound 137] this time
[out] 100 to 1000 nM

[in] Let us now turn to Cc1cccc(-c2c[nH]c3c(C#N)cccc23)n1 [Compound 133]
[out] 100 to 1000 nM

====

So I've got a bunch of compounds here, and I need their pIC50 values.
# system: androgen receptor (AR) (Homo sapiens, UniProt P10275, T878A)
# Construct: LNCaP cells expressing ARR2PB-FireflyLuc and CMV-RenillaLuc; endogenous in cells; host or cells: LNCaP cells carrying ARR2PB-FireflyLuc and CMV-RenillaLuc reporters
# assay overview: AR reporter assay in LNCaP cells expressing ARR2PB-FireflyLuc and CMV-RenillaLuc, antagonist mode (% remaining activity, IC50)
# Type: cell-based
# measurement parameters: 48 h at 37° C., class symbols A-D, read-out: IC50
# Description: LNCaP cells expressing ARR2PB-FireflyLuc and CMV-RenillaLuc were treated with indicated concentrations of test compounds, enzalutamide (negative control), or DHT (positive control)+/−0.5 nM DHT for 48 h at 37° C. Fluorescent signals were read with the ImageXpress Micro Confocal System. […] Activation (agonist mode) was calculated as % Activation=100×[(ReadSample−LCave)/(HCave−LCave)] where HC is cells treated with 1 uM DHT and LC is cells treated with DMSO. […]
pIC50: −log10 of the molar value.

[in] Give the measured pIC50 of `CNc1ccc(-c2c[nH]c3c(C#N)cccc23)nc1C` .
[out] > 7.00

[in] Please do the same for `Cc1cc(-c2n[nH]c3cc(F)c(F)cc23)nc2c1NCCC2` as well.
[out] 6.00 to 7.00

[in] Now consider `Cc1nc(-c2c[nH]c3c(C#N)cccc23)cnc1OCC(C)(C)N` and answer again.
[out] 5.00 to 6.00

[in] And `Cn1ccc2nc(-c3n[nH]c4cc(F)c(F)cc34)ccc2c1=O` ?
[out] < 5.00

[in] Also, `Cc1nc(-c2n[nH]c3cc(F)c(F)cc23)ccc1C(=O)N(C)C` please.
[out] < 5.00

[in] Do the same for `Cn1ccc2nc(-c3n[nH]c4ccccc34)ccc2c1=O` please
[out] 5.00 to 6.00

[in] Now the same for `Cc1nc(-c2c[nH]c3c(C#N)cccc23)cnc1O[C@@H]1CN[C@@H](C)C1`
[out] < 5.00

[in] Record: `Fc1cc2[nH]nc(-c3cc4ccccc4nn3)c2cc1F`
[out] < 5.00

[in] Would you mind doing `CCOC(=O)c1coc(-c2n[nH]c3c(C)cccc23)n1` as well?
[out] < 5.00

[in] Ok, now CC1NC(=O)c2ccc(-c3n[nH]c4cc(F)c(F)cc34)nc21 (stereo not shown)
[out] 6.00 to 7.00

[in] Another: CC1NC(=O)c2ccc(-n3ncc4cc(F)c(F)cc43)nc21 (stereo not shown)
[out] < 5.00

[in] Another compound to check: `CN(C)c1ccc2c(-c3ccc4ccccc4n3)n[nH]c2c1`
[out] < 5.00

[in] Would you mind doing Cc1nc(-c2c[nH]c3c(C#N)cccc23)cnc1OC1CCN(C)C1 (stereo not shown) as well?
[out] 5.00 to 6.00

[in] Another compound to check: `Cc1cncc(-c2c[nH]c3c(Cl)cccc23)n1`
[out] > 7.00

[in] Moving on to COC(C)CNc1ccc(-c2c[nH]c3c(C#N)cccc23)nc1C (stereo not shown)
[out] 6.00 to 7.00

[in] Proceed to `Cc1nc(-c2c[nH]c3c(C(F)(F)F)cccc23)cnc1N`
[out] 6.00 to 7.00

[in] Then this compound: CC(=O)N1CCC(Oc2ncc(-c3n[nH]c4c(C#N)cccc34)nc2C)C1 (stereo not shown)
[out] 5.00 to 6.00

[in] Cool, now `N#Cc1cccc2c(-c3cnc(OC(F)F)c(N)c3)c[nH]c12`
[out] > 7.00

[in] Here is the next compound: `CN(C)c1ccc2[nH]nc(-c3ccc4ccccc4n3)c2c1`
[out] < 5.00
